Experiment: Plasma PK after single subcutaneous dose in infected neutropenic mice, population PK model
Format: in vivo
Settings: mouse, sc; infected neutropenic mice, single s.c. dose 0.5–64 mg/kg, plasma LC-MS/MS; population PK (NONMEM), one-compartment; read-out: Vc/F, central volume of distribution
Counter-ions that a name gives are not always drawn. Bridge positions count the residues as written; N and C are the ends. Square brackets hold non-standard residues; d marks the D form. Peptide text beside a SMILES is read from it. * marks the point of attachment. X1 = CC[C@H](C)CCCCC(=O)*; Dab = NCC[C@H](N)C(=O)O
ASSAY METRIC: Vd/F (L/kg)
# output: bare number, implied unit L/kg

In: Any idea what Vd/F was measured for CC[C@H](C)CCCCC(=O)N[C@@H](CCN)C(=O)N[C@H](C(=O)N[C@@H](CCN)C(=O)N[C@H]1CCNC(=O)[C@H]([C@@H](C)O)NC(=O)[C@H](CCN)NC(=O)[C@H](CCN)NC(=O)[C@H](CC(C)C)NC(=O)[C@@H](Cc2ccccc2)NC(=O)[C@H](CCN)NC1=O)[C@@H](C)O [polymyxin B, Polymyxin B sulphate salt] (X1-[Dab]T[Dab][Dab][Dab][dF]L[Dab][Dab]T; lactam 4-C) ?
Out: 0.774
